# STUDY_SYSTEM: HLA-A0201 molecules on T2 cells (Homo sapiens, UniProt P04439, D140Y/D185E/D98H/E176V/E277Q/G131W/G231S/I119V/I121R/I166T/I218V/L300P/L318F/N151K/N90K/P208A/P217A/Q86G/Q94H/R138H/R169H/T345S)
# Construct: endogenous in cells; host or cells: T2 cell line (Dr. Peter Creswell, Yale University)
# EXPERIMENT_DESCRIPTION: Capacity of PSA derived peptides to bind and stabilize HLA-A0201 molecules on T2 cells (BB7.2 antibody, flow cytometry)
# Assay type: cell-based
# EXPERIMENTAL_CONTEXT: T2 cells, 125.0 μM peptide overnight at 37° C., then 3.0 hr de-stabilization step; FI of 0.5 or greater deemed significant
RESULT_TYPE: Fluorescence Index (FI)

Previously resolved entries follow.
INSERT INTO assay_data (sequence_input, result_type, test_result) VALUES
  ('DLHVISNDV [CLP-317]', 'Fluorescence Index (FI)', 0),
  ('MWVPVVFL (CLP313) [CLP-313, PSA derived peptide, preproprotein positions 1-8]', 'Fluorescence Index (FI)', 1.0),
  ('KLQCVDLHV (CLP316) [CLP-316, PSA derived peptide, preproprotein positions 170-178]', 'Fluorescence Index (FI)', 2.7);

[P] DLPTQEPAL (CLP315) [CLP-315, PSA derived peptide, preproprotein positions 140-148]
[Q] VLVHPQWVL [CLP-314]
Between the entries labelled P and Q , which has a larger Fluorescence Index (FI) value on record? API: response body contains the label of the selected item. Q

The origin of these recorded values is patent US20020132976A1.
